# Assay system: T1, human CD20, expressed on HEK293 cells (human, UniProt P11836 1-297)
# T1 construct: whole, on cells
# T1 sequence (looked up): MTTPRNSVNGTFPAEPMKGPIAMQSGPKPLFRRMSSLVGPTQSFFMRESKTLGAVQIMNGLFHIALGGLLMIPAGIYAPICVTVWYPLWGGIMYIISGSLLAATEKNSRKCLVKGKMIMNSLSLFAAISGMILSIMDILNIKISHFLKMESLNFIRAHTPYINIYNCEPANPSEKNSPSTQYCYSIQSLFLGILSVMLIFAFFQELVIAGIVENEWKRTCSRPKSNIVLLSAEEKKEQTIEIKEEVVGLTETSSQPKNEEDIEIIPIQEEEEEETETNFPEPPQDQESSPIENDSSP
# Assay explanation: flow cytometry on transfected HEK293 cells, 2 ug/ml IgG
Here the recorded fold fluorescence change versus mock (ZSgreen only) cells is given for each entry.
Quantity measured: fold fluorescence change versus mock (ZSgreen only) cells (fold)

Binder	Quantitative readout
Antibody MH8, IgG1null format (antibody, V domains shown, Tested as IgG1null (human IgG1 L234A, L235A, G237A) with human Ckappa; also called clone MH8) VH: EVQLVESGGGLVQPGGSLRLSCAASGFTFSSYGMSWVRQAPGKGLEWVANIWQDGSTKYVDSVKGRFTISRDNAKNSLYLQMNSLRAEDTAVYYCARAYGNYWYIDRWGQGTTVTVSS VL: DIVMTQSPDSLAVSLGERATINCKSSQSVTNDVAWYQQKPGQPPKLLINYAYHRFTGVPDRFSGSGYGTDFTLTISSLQAEDVAVYYCHQAYSTPYTFGQGTKLEIK	0.9
Antibody MH12, IgG1null format (antibody, V domains shown, Tested as IgG1null (human IgG1 L234A, L235A, G237A) with human Ckappa; also called clone MH12) VH: EVQLVESGGGLVQPGGSLRLSCAASGFTFSSYGMSWVRQAPGKGLEWVANIWQDGSEKYVDSVKGRFTISRDNAKNSLYLQMNSLRAEDTAVYYCARAYGNYWYIDRWGQGTTVTVSS VL: DIVMTQSPDSLAVSLGERATINCKSSQSVTNDVAWYQQKPGQPPKLLINYAYHRFTGVPDRFSGSGYGTDFTLTISSLQAEDVAVYYCHQAYSTPYTFGQGTKLEIK	1.1
Antibody MH4, IgG1null format (antibody, V domains shown, Tested as IgG1null (human IgG1 L234A, L235A, G237A) with human Ckappa; also called clone MH4) VH: EVQLVESGGGLVQPGGSLRLSCAASGFSLSSYGMSWVRQAPGKGLEWVAVIWQDGSTNYVDSVKGRFTISRDNAKNSLYLQMNSLRAEDTAVYYCARAYGNYWYIDRWGQGTTVTVSS VL: DIVMTQSPDSLAVSLGERATINCKSSQSVTNDVAWYQQKPGQPPKLLINYAYHRFTGVPDRFSGSGYGTDFTLTISSLQAEDVAVYYCHQAYSTPYTFGQGTKLEIK	1.1
Hu317 humanized anti-PD1 antibody, IgG1null format (antibody, V domains shown, Tested as IgG1null (human IgG1 L234A, L235A, G237A) with human Ckappa; also called hu317 IgG1) VH: QVQLQESGPGLVKPSETLSLTCTVSGFSLTSYGVHWIRQPPGKGLEWIGVIYADGSTNYNPSLKSRVTISKDTSKNQVSLKLSSVTAADTAVYYCARAYGNYWYIDVWGQGTTVTVSS VL: DIVMTQSPDSLAVSLGERATINCKSSESVSNDVAWYQQKPGQPPKLLINYAFHRFTGVPDRFSGSGYGTDFTLTISSLQAEDVAVYYCHQAYSSPYTFGQGTKLEIK	1.4

Source listed as patent US20200332006A1.
